Test system: SKOV3
METHOD NOTES: Primary qHTS to identify gynecologic anti-cancer compounds using libraries of approved drugs and bioactive compounds (AID 1345084); note: nearly all actives have a fitted effect of over 55% in size
CONDITION CONTEXT: Gynecologic cancer cell panel viability, ATPlite luminescence, 48 h; series mostly up to 57.5 µM
Inconclusive results are not listed. Activity calls are given as the source filed them. Calls come from the whole dose curve; as a rule, active = well fitted cell-killing curve with a large enough effect; inconclusive = small, poorly fitted or top-dose-only effect, or effect the other way; inactive = flat fitted curve, though single readings scatter.
Answer with one of the outcomes given here: active, inactive

Could you check what this test reported for CCOC(=O)n1ccn(C)c1=S ?
inactive

Hey, what did the test say about Cc1cc2c(cc1CC(=O)c1sccc1S(=O)(=O)Nc1onc(C)c1Cl)OCO2 ?
inactive

# lookup: test call for O=C(Nc1ccc(Cl)c(Cl)c1)C1CC1
inactive

Hey, what did the test say about Oc1ccc(Cl)c2cccnc12 ?
inactive

Returns: the outcome recorded for C#C[C@]1(O)CC[C@H]2[C@@H]3CCC4=CC(=O)CC[C@@H]4[C@H]3CC[C@@]21C in this assay.
inactive

Hi team, can someone confirm the assay call for CCCCCCCCCCCCCCCC[N+](C)(C)CC ?
active
